target: T1, PSMA Fab (006 PSMA Fab); assay: phage ELISA; biotinylated PSMA Fab on neutravidin plate, clonal phage supernatant, anti-M13 HRP detection; blocking buffer alone
T1 construct: also called Anti-PSMA Fab; anti-PSMA Fab
Phage binding ELISA signal, Anti-PSMA Fab values, listed per item
Note: the reply should be a number with no unit written.

In the examples that follow, each entry is paired with its recorded Phage binding ELISA signal, Anti-PSMA Fab.
ELYKCVPSWMCYGF (Peptide-180 library clone, tested as clonal phage supernatant (peptide fused to pIII of the bacteriophage)) [Phage-3050]    2.16
PGHVCRPAWMCEGF (Peptide-180 library clone, tested as clonal phage supernatant (peptide fused to pIII of the bacteriophage)) [Phage-3048]    2.17
VNVKCTPPWMCFGF (Peptide-180 library clone, tested as clonal phage supernatant (peptide fused to pIII of the bacteriophage)) [Phage-3049]    2.16
DWVRCVPEWMCLGF (Peptide-180 library clone, tested as clonal phage supernatant (peptide fused to pIII of the bacteriophage)) [Phage-3058]    2.15
DMRLCRPVWMCEGF (Peptide-180 library clone, tested as clonal phage supernatant (peptide fused to pIII of the bacteriophage)) [Phage-3052]    2.16

Consider the record given below.
IN: Give the measured Phage binding ELISA signal, Anti-PSMA Fab of DWIRCLPAWMCTGF (Peptide-180 library clone, tested as clonal phage supernatant (peptide fused to pIII of the bacteriophage)) [Phage-3054] .
OUT: 2.16
